Experiment: growth inhibition, single agents and combos, CRL2098, cell-based, BGB or cisplatin IC20 combos, synergistic combos for chromothripsis tumors (AID 1671454);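 also: cells exposed for 96 h before readout; 0% = vehicle DMSO and 100% = killing by high DMSO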
Details: CRL2098 osteosarcoma cells, drug combinations, measured here: combination with BGB at IC20, at 0.5 µM, stronger effect = higher value
Measure: inhibition (%)
Quick reminder: number only, in %, skip the unit.

Field: example entries. Status: answers known.
Query: Item under review: COc1ccc(C(=O)CC2(O)C(=O)Nc3c(Cl)ccc(Cl)c32)cc1 (configuration not stated) . Reported inhibition?
Reply: 4.02

Query: Item under review: CC(C)OC(=O)[C@H](C)N[P@](=O)(OC[C@H]1O[C@@H](n2ccc(=O)[nH]c2=O)[C@](C)(F)[C@@H]1O)Oc1ccccc1 . Reported inhibition?
Reply: 11.7

Query: Item under review: Cc1ccc([N+](=O)[O-])cc1S(=O)(=O)N(C)/N=C/c1cnc2ccc(Br)cn12 . Reported inhibition?
Reply: 91.5

Query: Item under review: NC1CCC(N[C@@H]2C[C@H]2c2ccccc2)CC1 (some centres not stated) . Reported inhibition?
Reply: 8.8

Query: Item under review: O=C(/C=C/c1ccc(CN(CCO)CCc2c[nH]c3ccccc23)cc1)NO . Reported inhibition?
Reply: 80.4

Query: Item under review: C[C@]12CCCN1CC1=NNC(=O)c3cc(F)cc4[nH]c2c1c34 . Reported inhibition?
Reply: 1.29

Query: Item under review: COc1ccc(C(=O)C2CCN(CC(=O)N(Cc3nc4c(c(=O)[nH]3)COCC4)CC3CC3)CC2)cc1 . Reported inhibition?
Reply: -15.2

Query: Item under review: COc1cc2ncnc(-n3nc(-c4ccccn4)nc3N)c2cc1OC . Reported inhibition?
Reply: -51.1

Query: Item under review: O=c1[nH]c([C@@H]2CCCN2)nc2c1oc1ccc(Cl)cc12 . Reported inhibition?
Reply: -77.4

Query: Item under review: O=c1cc(N2CCOCC2)oc2c1ccc1ccccc12 . Reported inhibition?
Reply: -40.8

Others:
Query: Item under review: CN(C)CCN1C(=O)c2cccc3cc(N)cc(c23)C1=O . Reported inhibition?
Reply: -22.2

Query: Item under review: Nc1ccccc1NC(=O)c1ccc(CNc2nccc(-c3cccnc3)n2)cc1 . Reported inhibition?
Reply: -25.1
